- TESTED_TARGET: T1, formyl peptide receptor (FPR), wild type, solubilized in dodecyl maltoside (human, UniProt P21462 1-350)
- T1 construct: Crude detergent extract of membranes, not purified; the extract holds endogenous G protein subunits; also called wild type receptor; soluble FPR
- T1 sequence (looked up): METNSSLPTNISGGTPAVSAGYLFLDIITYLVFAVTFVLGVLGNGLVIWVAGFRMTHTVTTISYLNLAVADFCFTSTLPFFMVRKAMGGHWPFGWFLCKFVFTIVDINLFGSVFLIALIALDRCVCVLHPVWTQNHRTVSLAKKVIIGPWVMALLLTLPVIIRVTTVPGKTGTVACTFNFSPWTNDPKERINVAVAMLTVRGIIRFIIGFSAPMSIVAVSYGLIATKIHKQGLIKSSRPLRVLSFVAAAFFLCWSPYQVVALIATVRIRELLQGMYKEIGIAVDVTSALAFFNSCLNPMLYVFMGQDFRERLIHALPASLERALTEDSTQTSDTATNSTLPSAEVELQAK
- ASSAY: soluble receptor in detergent, spectrofluorimetry
- Procedure: Spectrofluorimetric Analysis of Soluble Complexes. Fluorescence was measured with an SLM 8000 spectrofluorimeter (SLM Instruments, Inc.) using the photon counting mode. The sample holder was fitted with a cylindrical cuvette adapter, which allowed the use of 200 μl samples in 7mm ×45 mm cylindrical cuvettes (Sienco; Wheat Ridge, Colo.), stirred with 2×5 mm stir bars (Bel-Art). […] Emission was monitored using a 520+/−10 nm filter (Corion) and a 500 nm long-pass filter (Kopp; Pittsburg, Pa.). […]
No end group written: not given here. *: point of attachment. For = O=C*
MEASURE_NAME: Kd (nM)
Write the value in nM as a bare number.

Lookup: What measured Kd goes with For-MLFK (also: FITC conjugated, site not given here, everywhere else it is fMLFK-FITC; also called fMLFK-FITC; fluorescent ligand) [formyl-MLFK-FITC] ?
Found: 5
